Test system: MKNK2
CONDITION NOTES: concentration: 1 μM, replicates: in singlicate; n = 1;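 further: KINOMEscan kinase panel screen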
QUANTITY MEASURED: %Inh (%)
Numbers only, in %.

Would you please look over these solved cases?
[
  {
    "SMILES TEXT": "CCCCc1nn2ncccc2c1-c1ccnc(Nc2ccc(N3CCN(C)CC3)cc2)n1",
    "QUANTITY MEASURED": "%Inh",
    "QUANTITATIVE RESULT": 64
  },
  {
    "SMILES TEXT": "COc1cccc(C2=C(Nc3ccc(Cl)c(C(=O)O)c3)C(=O)NC2=O)c1",
    "QUANTITY MEASURED": "%Inh",
    "QUANTITATIVE RESULT": 5
  },
  {
    "SMILES TEXT": "O=C(Nc1n[nH]c2cc(-c3ccoc3)ccc12)C1CC1",
    "QUANTITY MEASURED": "%Inh",
    "QUANTITATIVE RESULT": 15
  }
]

For every item below, please supply its %Inh.
1. Cc1ccc(C(=O)N2CC[C@@H](O)C2)cc1-n1c(C)cc(OCc2ccc(F)cc2F)c(Br)c1=O
2. CCc1ccc(-c2ccc3c(c2)-c2c(cnn2C)S(=O)(=O)N3C)cc1

Result:
1. 0
2. 0

====

System: ERN1
CONDITION NOTES: concentration: 1 μM, replicates: in singlicate; n = 1
QUANTITY MEASURED: %Inh

The cases that follow already have their %Inh on record.
[
  {
    "MOLECULE": "Fc1ccc(-c2ncn(C3CCNCC3)c2-c2ccnc(Oc3ccc(-c4ccccc4)cc3)n2)cc1",
    "%Inh": "45%"
  },
  {
    "MOLECULE": "NCCCC(NC(=O)c1cc(Br)c(-c2ccnc3[nH]ccc23)s1)c1ccccc1.O=C(O)C(F)(F)F.O=C(O)C(F)(F)F (stereo not shown)",
    "%Inh": "22%"
  },
  {
    "MOLECULE": "C[C@@H](Oc1cc(-n2cnc3cc(-c4ccnc(NCCS(C)(=O)=O)c4)ccc32)sc1C(N)=O)c1ccccc1Cl",
    "%Inh": "0%"
  },
  {
    "MOLECULE": "Cl.c1ccc(-c2ccc3c(Nc4ccc5[nH]ccc5c4)ccnc3c2)nc1",
    "%Inh": "0%"
  },
  {
    "MOLECULE": "c1ccc(Oc2ccc(Nc3ccnc4cc(-c5ccc(CNCCN6CCOCC6)o5)ccc34)cc2)nc1",
    "%Inh": "26%"
  }
]

For each of the molecules below, state %Inh.
1. CN1CCN(CCCNc2nccc(-c3c(-c4ccc(F)cc4)nn4cc(C(F)(F)F)ccc34)n2)CC1
2. Cc1occc1-c1ncc(OC[C@@H](N)Cc2c[nH]c3ccccc23)cc1-c1ccc2[nH]nc(C)c2c1.O=C(O)C(F)(F)F

Result:
["0%", "6%"]

====

Test system: EPHB1
CONDITION NOTES: concentration: 1 μM, replicates: in singlicate; n = 1
Please mark T if the recorded %Inh is equal to or greater than 20%, and F if it falls below.

Recorded results for 9 compounds are shown here.
[
  {
    "COMPOUND": "Cc1cccc(Nc2nc(N[C@H]3CCNC3)ncc2C(N)=O)c1.Cl",
    "CLASS": "T"
  },
  {
    "COMPOUND": "COCCOCCOc1cc2ncc3c4ccc(C#N)cc4[nH]c3c2cc1OC",
    "CLASS": "F"
  },
  {
    "COMPOUND": "O=C(Nc1cccc(-c2nn3ccccc3c2-c2ccnc(Nc3cccc(F)c3)n2)c1)c1c(F)ccc(F)c1Cl",
    "CLASS": "F"
  },
  {
    "COMPOUND": "COc1cccc(-c2ccc3c(NC(=O)C4CC4)n[nH]c3n2)c1",
    "CLASS": "F"
  },
  {
    "COMPOUND": "CN(C)S(=O)(=O)c1cc(-c2ccc3nccc(-c4cccc(S(N)(=O)=O)c4)c3c2)cnc1N",
    "CLASS": "T"
  },
  {
    "COMPOUND": "c1ccc(-c2n[nH]cc2Nc2ccnc3ccccc23)nc1",
    "CLASS": "F"
  },
  {
    "COMPOUND": "CNC(=O)c1ccccc1Nc1nc(Nc2ccc(N3CCOCC3)cc2)ncc1Cl.Cl",
    "CLASS": "T"
  },
  {
    "COMPOUND": "O=C(Nc1cccc(-c2nn3ncccc3c2-c2ccnc(Nc3ccccc3)n2)c1)c1c(F)cccc1F",
    "CLASS": "F"
  },
  {
    "COMPOUND": "O=C(Nc1n[nH]c2cc(-c3ccoc3)ccc12)C1CC1",
    "CLASS": "F"
  }
]

Continue with the compound presented below.
Problem: Determine whether measured %Inh meets or exceeds 20% for Cl.Cl.NCC(NCc1ccc(-c2ccnc3[nH]ccc23)s1)c1ccccc1 (stereo not shown)
Result: F

====

What %Inh was measured for each of the following?
Tested on: TYRO3
CONDITION NOTES: concentration: 1 μM, replicates: in singlicate; n = 1
Numbers only, in %.

[
  {
    "MOLECULE": "C[C@@H]1CC[C@@H](C(=O)Nc2ccccc2)CN1c1cc(-c2ccc3c(N)n[nH]c3c2)nc(N)n1",
    "QUANTITY MEASURED": "%Inh",
    "QUANTITATIVE RESULT": 0
  },
  {
    "MOLECULE": "Cl.Cl.NCC(NCc1ccc(-c2ccnc3[nH]ccc23)s1)c1ccccc1 (stereo not drawn)",
    "QUANTITY MEASURED": "%Inh",
    "QUANTITATIVE RESULT": 0
  },
  {
    "MOLECULE": "Cl.c1ccc(-c2ccc3c(Nc4ccc5[nH]ccc5c4)ccnc3c2)nc1",
    "QUANTITY MEASURED": "%Inh",
    "QUANTITATIVE RESULT": 0
  }
]

Okay, here is my list. What is %Inh for each of these?
1. O=C(Nc1ccccc1F)NC1CCN(c2ccnc(Nc3ccc(F)cc3)n2)CC1
2. Nc1ncc(-c2ccc3nccc(-c4ccncc4)c3c2)cc1S(=O)(=O)N1CCOCC1

Result:
[0, 0]

Answer for every listed entry: what is its %Inh? The entries follow.
1. CCCCc1nn2ncccc2c1-c1ccnc(Nc2ccc(N3CCN(C)CC3)cc2)n1
2. Cn1cc(-c2[nH]c3cc(NC(=O)[C@H](N)C4CCCCC4)cc4c3c2C=NNC4=O)cn1
3. Cc1cccc(NC(=O)Nc2ccc(Oc3ncnc4ccn(C)c34)cc2)c1
4. O=C(O)C(F)(F)F.O=C(O)C(F)(F)F.O=c1[nH]ccc2nc(N[C@@H]3CCCNC3)nc(Nc3ccc(S(=O)(=O)N4CCOCC4)cc3)c12

Result:
1
73
0
15

Please report %Inh for every entry that follows.
1. O=C(Nc1cccc(Oc2ccc3nc(NC(=O)C4CC4)cn3n2)c1)c1ccccc1C(F)(F)F
2. COc1cc(Nc2nccc(N3CCC(NC(=O)Nc4cccc(C(C)=O)c4)C3)n2)cc(OC)c1OC (stereo not drawn)
3. COc1ccc(Nc2nccc(N3CCC(NC(=O)Nc4cccc(OC)c4)C3)n2)cc1 (stereo not drawn)
4. O=c1[nH]cc(-c2ccc(N3CCOCC3)cc2)c2sc(-c3cn[nH]c3)cc12
5. Nc1ncnc2c1nc(-c1ccccc1)n2-c1ccccc1
6. COC(=O)Nc1nc2cc(Oc3ccc(NC(=O)Nc4cc(C(F)(F)F)ccc4F)cn3)ccc2[nH]1.Cl.Cl

Result:
1. 36
2. 0
3. 0
4. 0
5. 9
6. 0

====

Tested on: ACVR2A
CONDITION NOTES: concentration: 1 μM, replicates: in singlicate; n = 1
QUANTITY MEASURED: %Inh (%)
Give bare numbers, in %.

[
  {
    "MOLECULE": "COc1cccc(-c2ccc3c(NC(=O)C4CC4)n[nH]c3n2)c1 [SB-710903]",
    "QUANTITY MEASURED": "%Inh",
    "READOUT UNIT": "%",
    "QUANTITATIVE RESULT": 0
  },
  {
    "MOLECULE": "CC(C)c1nc(-c2cccc(NS(=O)(=O)c3c(F)cccc3F)c2F)c(-c2ccnc(Nc3ccc(N4CCOCC4)nc3)n2)s1 [GSK2008607]",
    "QUANTITY MEASURED": "%Inh",
    "READOUT UNIT": "%",
    "QUANTITATIVE RESULT": 0
  },
  {
    "MOLECULE": "Cc1ccc(S(=O)(=O)Nc2ccc(Nc3nccc(Nc4cccc5[nH]ncc45)n3)cc2)cc1 [GSK581271]",
    "QUANTITY MEASURED": "%Inh",
    "READOUT UNIT": "%",
    "QUANTITATIVE RESULT": 0
  }
]

Problem: Looking for the measured %Inh of Cc1ccc(F)c(C(=O)Nc2cccc(-c3nn4ccccc4c3-c3ccnc(Nc4cccc(F)c4)n3)c2)c1F [GSK361061] , can you help?
Result: 7
